# test_target: T1, CD123 (Homo sapiens (Human), UniProt P26951 19-305, limits assumed)
# T1 construct: also called CD123-Signal
# T1 sequence: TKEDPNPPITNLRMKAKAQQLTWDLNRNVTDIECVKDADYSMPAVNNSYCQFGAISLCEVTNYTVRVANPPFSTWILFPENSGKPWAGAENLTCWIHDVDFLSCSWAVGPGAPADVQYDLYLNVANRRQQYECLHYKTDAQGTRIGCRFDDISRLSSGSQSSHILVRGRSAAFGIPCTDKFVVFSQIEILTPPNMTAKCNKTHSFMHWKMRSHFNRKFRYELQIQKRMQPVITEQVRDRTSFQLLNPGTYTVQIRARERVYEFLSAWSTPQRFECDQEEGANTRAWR
# experiment_notes: ELISA, format not described
# Set-up: unit not given here
Label 1.0 when ELISA_avg is strictly below 4; at or above that, label 0.0.

Asked: Would you kindly verify if ELISA_avg of D domain SEQ ID NO: 742 (designed binder) MGSWIEFESRLWAIEDRLLALGGSEAELAAFEKEIAAFESELQAYKGKGNPEVEFLRLEAADIREDLQAYRHN is strictly less than 4?
Given back: 0.0

Asked: Dear reviewer, please state whether D domain SEQ ID NO: 680 (designed binder) MGSWAEFDDRLEAIEYRLHALGGSEAELAWFEEGIAGFEHALQSYKGKGNPEVEALETEAGAINEELWAYRHN has ELISA_avg strictly beneath 4.
Given back: 0.0

Asked: ELISA_avg under 4? Item: D domain SEQ ID NO: 714 (designed binder) MGSWEEFHDRLMAIETRLWALGGSEAELAAFEKEIAAFESELQAYKGKGNPEVEWLRYEAADIRDYLQAYRHN
Given back: 0.0

Asked: Consider D domain SEQ ID NO: 701 (designed binder) MGSWYEFADRLDAIMDRLVALGGSEAELAYFEWEIAAFEEFLQMYKGKGNPEVEALDEEAEAIKDELMAYRHN . Does its ELISA_avg lie strictly below 4?
Given back: 1.0

Asked: Given the entry D domain SEQ ID NO: 757 (designed binder) MGSWYEFENRLGAIGDRLWALGGSEAELAAFEKEIAAFESELQAYKGKGNPEVEWLRDEAAYIRAVLQAYRHN , would its reported ELISA_avg be below 4?
Given back: 0.0

Asked: ELISA_avg strictly < 4 for this binder? D domain SEQ ID NO: 760 (designed binder) MGSWVEFENRLEAIENRLWALGGSEAELAAFEKEIAAFESELQAYKGKGNPEVEWLREDAAQIRMMLQAYRHN
Given back: 0.0

Asked: Hi there! Is ELISA_avg for D domain SEQ ID NO: 674 (designed binder) MGSWWEFYDRLTAIEARLWALGGSEAELADFEEGIADFEYDLQDYKGKGNPEVEALFWEAWAIQSELTAYRHN below 4, do you know?
Given back: 1.0

Asked: Is the reported ELISA_avg for D domain SEQ ID NO: 716 (designed binder) MGSWMEFIDRLDAIEHRLWALGGSEAELAAFEKEIAAFESELQAYKGKGNPEVEFLREEAAEIRMYLQAYRHN strictly below 4?
Given back: 0.0

Asked: Here's an entry: D domain SEQ ID NO: 661 (designed binder) MGSWWEFEQRLDAIETRLWALGGSEAELAYFEHIIADFEDELQIYKGKGNPEVEALGWEAFAIDGELTAYRHN . Is its ELISA_avg below 4?
Given back: 0.0

Asked: Given the entry D domain SEQ ID NO: 736 (designed binder) MGSWVEFYDRLHAIYFRLLALGGSEAELAAFEKEIAAFESELQAYKGKGNPEVEDLRWYAADIRLVLQAYRHN , would its reported ELISA_avg be below 4?
Given back: 0.0

Asked: Criterion: ELISA_avg strictly below 4. Is it met by D domain SEQ ID NO: 773 (designed binder) MGSWIEFEDRLEAIEDRLFALGGSEAELAAFEKEIAAFESELQAYKGKGNPEVEWLRQEAAEIRLMLQAYRHN ?
Given back: 0.0

Asked: Just wondering, is ELISA_avg of D domain SEQ ID NO: 764 (designed binder) MGSWFEFEDRLYAIEDRLYALGGSEAELAAFEKEIAAFESELQAYKGKGNPEVEYLRWGAATIRDELQAYRHN below 4?
Given back: 0.0

Asked: Take the binder D domain SEQ ID NO: 767 (designed binder) MGSWEEFTDRLWAIEDRLYALGGSEAELAAFEKEIAAFESELQAYKGKGNPEVEWLRDEAAFIRKSLQAYRHN and say whether its ELISA_avg is less than 4.
Given back: 0.0

Asked: Check if ELISA_avg falls below 4 for D domain SEQ ID NO: 676 (designed binder) MGSWWEFSWRLEAIETRLDALGGSEAELAFFEMDIAWFEQDLQLYKGKGNPEVEALEEEAYAIYEELEAYRHN .
Given back: 1.0

Asked: Identify whether the binder D domain SEQ ID NO: 677 (designed binder) MGSWEEFFFRLEAIDDRLYALGGSEAELALFEEVIAYFEQDLQWYKGKGNPEVEALYVEAYAIQEELYAYRHN records ELISA_avg below 4.
Given back: 1.0

Asked: Report whether reported ELISA_avg is lower than 4 (strictly) for D domain SEQ ID NO: 694 (designed binder) MGSWYEFFDRLDAIYDRLYALGGSEAELASFEAQIAEFEVELQSYKGKGNPEVEALEWEAWAIDEELYAYRHN
Given back: 0.0

Asked: Is 4 strictly greater than the binder's reported ELISA_avg? binder: D domain SEQ ID NO: 724 (designed binder) MGSWYEFEDRLDAIQWRLWALGGSEAELAAFEKEIAAFESELQAYKGKGNPEVEFLRESAANIRQHLQAYRHN
Given back: 0.0

Asked: Decide: ELISA_avg of D domain SEQ ID NO: 690 (designed binder) MGSWDEFHQRLAAIGDRLWALGGSEAELAYFEWEIATFEWDLQVYKGKGNPEVEALYFEATAIDEELMAYRHN strictly below 4?
Given back: 1.0

Asked: Criterion: ELISA_avg strictly below 4. Is it met by D domain SEQ ID NO: 746 (designed binder) MGSWYEFWDRLEAIEDRLWALGGSEAELAAFEKEIAAFESELQAYKGKGNPEVEFLRYSAAEIRYQLQAYRHN ?
Given back: 0.0
